src = ChEMBL document CHEMBL1201862

- System: IGROV-1
- test-name: NCI tumour cell line growth inhibition, 48 h
Calls of active or inactive are those of the source. Rule as the data show it: active = GI50 up to about 1.1 µM and inactive = higher.
// values below are reported GI50

Examples with answers:
molecule	system-name	GI50
COc1ccc(/C=C/c2cc(OC)c(OC)c(OC)c2)cc1	IGROV-1	11 µM (inactive)
O=c1[nH]c(=O)n(COCc2ccccc2)c2ccc([N+](=O)[O-])cc12	IGROV-1	> 100 µM (inactive)
COc1ccc(NC(=O)c2cc(OC)c(OC)c(OC)c2)cc1	IGROV-1	66.1 µM (inactive)
CC(/C=C/c1ccccc1)=N\N=C(C)\C=C\c1ccccc1	IGROV-1	> 100 µM (inactive)
O=[N+]([O-])c1cc(C(F)(F)F)cc2c1SC1=Nc3ccccc3CN12	IGROV-1	> 100 µM (inactive)

*Q* Complete the entry with GI50 for O=[N+]([O-])c1ccc(/N=N/N2CCCC2)cc1
*A* > 100 µM (inactive)

*Q* Complete the entry with GI50 for CCCN(CCCC(NC(C)=O)C(=O)NCc1ccccc1)C(=O)N(C)N=O (configuration not stated)
*A* > 100 µM (inactive)
